# System: 1a-luc Q30E (HCV genotype 1a replicon)
# ASSAY_PROTOCOL: Luciferase replicon transient transfection assay, 1a-luc Q30E
# Format: cell-based, hepatitis C virus
Would you kindly list Ratio for each of these molecules?
Reply with the value as a number alone.

Query: What value of Ratio has been reported for the following molecule? COC(=O)N[C@H](C(=O)N1CCC[C@H]1c1nc(-c2ccc(-c3ccc(-c4c[nH]c([C@@H]5CCCN5C(=O)[C@@H](NC(=O)OC)C(C)C)n4)cc3)cc2)c[nH]1)C(C)C [BMS-790052, reference compound]
Result: 2935

Query: Could you do the same for COC(=O)N[C@H](C(=O)N1CCC[C@H]1c1ncc(-c2ccc(-c3csc4c(-c5ccc6[nH]c([C@@H]7CCCN7C(=O)[C@H](NC(=O)OC)c7ccccc7)nc6c5)csc34)cc2)[nH]1)C(C)C , please?
Result: 423

Query: Could you do the same for COC(=O)N[C@H](C(=O)N1CCC[C@H]1c1ncc(-c2ccc(-c3cc4sc(-c5ccc(-c6c[nH]c(C7CCCN7C(=O)[C@H](NC(=O)OC)c7ccccc7)n6)cc5)cc4s3)cc2)[nH]1)C(C)C (stereo partly drawn) , please?
Result: 597

---

Would you kindly list Ratio for each of these molecules?
# Test system: ZS11-luc L31F (HCV genotype 1b replicon)
# ASSAY_PROTOCOL: Luciferase replicon transient transfection assay, ZS11-luc L31F
# Type: cell-based, hepatitis C virus
Reply with the value as a number alone.

Query: What value of Ratio has been reported for the following molecule? COC(=O)N[C@H](C(=O)N1CCC[C@H]1c1nc2cc(-c3csc4c(-c5ccc(-c6cnc([C@@H]7CCCN7C(=O)[C@H](NC(=O)OC)c7ccccc7)[nH]6)cc5)csc34)ccc2[nH]1)C(C)C
Result: 4

Query: Could you do the same for COC(=O)N[C@H](C(=O)N1CCC[C@H]1c1ncc(-c2ccc(-c3csc4c(-c5cnc([C@@H]6CCCN6C(=O)[C@H](NC(=O)OC(C)(C)C)c6ccccc6)[nH]5)csc34)cc2)[nH]1)C(C)C , please?
Result: 8

Query: Could you do the same for COC(=O)N[C@H](C(=O)N1CCC[C@H]1c1nc(-c2ccc(-c3ccc(-c4c[nH]c([C@@H]5CCCN5C(=O)[C@@H](NC(=O)OC)C(C)C)n4)cc3)cc2)c[nH]1)C(C)C [BMS-790052, reference compound] , please?
Result: 7

Query: Could you do the same for COC(=O)N[C@H](C(=O)N1CCC[C@H]1c1ncc(-c2ccc(-c3csc4c(-c5ccc6[nH]c([C@@H]7CCCN7C(=O)[C@H](NC(=O)OC)c7ccccc7)nc6c5)csc34)cc2)[nH]1)C(C)C , please?
Result: 4

---

# Tested on: 1a-luc Q30E (HCV genotype 1a replicon)
# ASSAY_PROTOCOL: Luciferase replicon transient transfection assay, 1a-luc Q30E
# Format: cell-based, hepatitis C virus
REPORTED_PROPERTY: Ratio

Query: What value of Ratio has been reported for the following compound? COC(=O)N[C@H](C(=O)N1CCC[C@H]1c1ncc(-c2ccc(-c3csc4c(-c5cnc([C@@H]6CCCN6C(=O)[C@H](NC(=O)OC(C)(C)C)c6ccccc6)[nH]5)csc34)cc2)[nH]1)C(C)C
Result: 957

Query: Could you do the same for COC(=O)N[C@H](C(=O)N1CCCC1c1ncc(-c2csc3c(-c4ccc(-c5cnc(C6CCCN6C(=O)C(c6ccccc6)N6CCCCC6)[nH]5)cc4)csc23)[nH]1)C(C)C (stereo partly drawn) , please?
Result: 25

Query: Could you do the same for COC(=O)N[C@H](C(=O)N1CCC[C@H]1c1nc2cc(-c3csc4c(-c5ccc(-c6cnc([C@@H]7CCCN7C(=O)[C@H](NC(=O)OC)c7ccccc7)[nH]6)cc5)csc34)ccc2[nH]1)C(C)C , please?
Result: 422

---

# ASSAY_PROTOCOL: in vitro
# Assay type: cell-based
# CONDITION_LABEL: human; GS4.1 cells, cellular viability
REPORTED_PROPERTY: CC50

Query: What value of CC50 has been reported for the following compound? COC(=O)N[C@H](C(=O)N1CCCC1c1nc(-c2ccc(-c3sc4cc(-c5ccc(-c6cnc([C@@H]7CCCN7C(=O)[C@@H](NC(=O)OC)C(C)C)[nH]6)cc5)sc4c3-c3ccc(-c4cnc(C5CCCN5C(=O)[C@@H](NC(=O)OC)C(C)C)[nH]4)cc3)cc2)c[nH]1)C(C)C (stereo partly shown) [Compound A105]
Result: 10 to 75 µM

Query: Could you do the same for CC(C)(C)OC(=O)N1CCCC1c1nc(-c2ccc(-c3cn4cc(-c5ccc(-c6cnc([C@@H]7CCCN7C(=O)OC(C)(C)C)[nH]6)cc5)sc4n3)cc2)c[nH]1 (stereo partly shown) [Compound A157] , please?
Result: > 75 µM

Query: Could you do the same for COC(=O)N[C@H](C(=O)N1CCCC1c1nc(-c2ccc(-c3c(C(=O)OC)[nH]c4c(-c5ccc(-c6cnc(C7CCCN7C(=O)[C@@H](NC(=O)OC)C(C)C)[nH]6)cc5)csc34)cc2)c[nH]1)C(C)C (stereo partly shown) [Compound A163] , please?
Result: > 75 µM

Query: Could you do the same for COC(=O)N[C@H](C(=O)N1CCCC1c1ncc(-c2ccc(-c3cn4c(-c5ccccc5)csc4n3)cc2)[nH]1)C(C)C (stereo partly shown) [Compound A162] , please?
Result: 10 to 75 µM

Query: Could you do the same for CC(C)(C)OC(=O)Nc1ccc(-c2cn3cc(NC(=O)[C@@H]4CCCN4C(=O)[C@H](NC(=O)OC(C)(C)C)c4ccccc4)nc3s2)cc1 [Compound A29] , please?
Result: 10 to 75 µM

Query: Could you do the same for COC(=O)N[C@@H](C(=O)N1CCC[C@H]1C(=O)Nc1ccc(-c2cn3cc(NC(=O)[C@@H]4CCCN4C(=O)[C@H](NC(=O)OC)c4ccccc4)nc3s2)cc1)c1ccccc1 [Compound A79] , please?
Result: > 75 µM

Query: Could you do the same for COC(=O)N[C@H](C(=O)N1CCCC1c1ncc(-c2ccc(-c3cn4ccsc4n3)cc2)[nH]1)C(C)C (stereo partly shown) [Compound A160] , please?
Result: > 75 µM

Query: Could you do the same for COC(=O)N[C@H](C(=O)N1CCCC1c1ncc(-c2csc3c(-c4ccc(-c5cnc(C6CCCN6C(=O)[C@@H](NC(=O)OC)C(C)C)[nH]5)cc4)csc23)[nH]1)c1ccccc1 (stereo partly shown) [Compound A78] , please?
Result: > 75 µM

Query: Could you do the same for COC(=O)N[C@H](C(=O)N1CCCC1c1ncc(-c2ccc(-c3csc4c(-c5cnc(C6CCCN6C(=O)OCc6ccccc6)[nH]5)csc34)cc2)[nH]1)C(C)C (stereo partly shown) [Compound A49] , please?
Result: > 75 µM

Query: Could you do the same for COC(=O)N[C@H](C(=O)N1CCC[C@H]1C(=O)Nc1cn2cc(-c3ccc(-c4cnc([C@@H]5CCCN5C(=O)[C@@H](NC(=O)OC)C(C)C)[nH]4)cc3)sc2n1)C(C)C [Compound A2] , please?
Result: 10 to 75 µM

---

# ASSAY_PROTOCOL: in vitro
# Format: cell-based
# CONDITION_LABEL: human; GS4.1 cells, cellular viability
Would you kindly list CC50 for each of these compounds?

Query: What value of CC50 has been reported for the following compound? CC(C)(C)OC(=O)N1CCCC1c1ncc(-c2cn3cc(-c4ccc(Cl)cc4)sc3n2)[nH]1 (centres unmarked) [Compound A152]
Result: 10 to 75 µM

Query: Could you do the same for COC(=O)N[C@H](C(=O)N1CCCC1c1ncc(-c2cn3cc(-c4ccc(Cl)cc4)sc3n2)[nH]1)C(C)C (some centres unmarked) [Compound A153] , please?
Result: 10 to 75 µM

Query: Could you do the same for COC(=O)N[C@H](C(=O)N1CCC[C@H]1c1ncc(-c2ccc(-c3csc4c(-c5cnc([C@@H]6CCCN6C(=O)[C@H](NC(=O)OC(C)(C)C)c6ccccc6)[nH]5)csc34)cc2)[nH]1)C(C)C [Compound A111] , please?
Result: > 75 µM

Query: Could you do the same for COC(=O)N[C@H](C(=O)N1CCC[C@H]1c1ncc(-c2ccc(-c3cn4cc(NC(=O)[C@@H]5CCCN5C(=O)[C@H](NC(=O)OC(C)(C)C)c5ccccc5)nc4s3)cc2)[nH]1)C(C)C [Compound A1] , please?
Result: > 75 µM

Query: Could you do the same for CC(C)(C)OC(=O)N[C@@H](C(=O)N1CCOC[C@H]1C(=O)Nc1cn2cc(-c3ccccc3)sc2n1)c1ccccc1 [Compound A22] , please?
Result: > 75 µM

Query: Could you do the same for CC(C)(C)OC(=O)N[C@@H](C(=O)N1CCC[C@H]1C(=O)Nc1cn2cc(C#Cc3ccccc3)sc2n1)c1ccccc1 [Compound A23] , please?
Result: 10 to 75 µM

Query: Could you do the same for COC(=O)NC(C(=O)N1CCCC1c1ncc(-c2cn3cc(-c4ccc(-c5cnc([C@@H]6CCCN6C(=O)[C@H](NC(=O)OC)c6ccccc6)[nH]5)cc4)nc3s2)[nH]1)c1ccccc1 (some centres unmarked) [Compound A60] , please?
Result: > 75 µM

Query: Could you do the same for COC(=O)N[C@H](C(=O)N1CCC[C@H]1c1ncc(-c2ccc(-c3cn4cc(NC(=O)C5CCCN5C(=O)CNC(=O)OC(C)(C)C)nc4s3)cc2)[nH]1)C(C)C (some centres unmarked) [Compound A31] , please?
Result: > 75 µM

Query: Could you do the same for COC(=O)N[C@H](C(=O)N1CCCC1c1ncc(-c2ccc(-c3csc4c(-c5cnc(C6CCCN6C(=O)[C@H](NC(=O)OC)C(C)C)[nH]5)csc34)cc2)[nH]1)C(C)C (some centres unmarked) [Compound A77] , please?
Result: > 75 µM

Query: Could you do the same for COC(=O)N[C@@H](C(=O)N1CCC[C@H]1C(=O)Nc1ccc(C#Cc2cn3cc(NC(=O)[C@@H]4CCCN4C(=O)[C@H](NC(=O)OC)c4ccccc4)nc3s2)cc1)c1ccccc1 [Compound A80] , please?
Result: > 75 µM

Query: Could you do the same for COC(=O)N[C@H](C(=O)N1CCCC1c1cc(-c2ccc(-c3csc4c(-c5ccc(-c6cnc(C7CCCN7C(=O)[C@@H](NC(=O)OC)C(C)C)[nH]6)cc5)csc34)cc2)[nH]n1)C(C)C (some centres unmarked) [Compound A87] , please?
Result: > 75 µM

Data credit: patent US20120252721A1
